# Tested on: PXR:RXRa (NR concentration 270 nM, RXRa partner concentration 90 nM)
# Test Protocol: PBM binding z-score (relative to random genomic background probes); higher = stronger binding; sequences stand for … in GC…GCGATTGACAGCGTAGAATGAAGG
Use Yes when the recorded PBM binding z-score is no lower than 3; use No when it is lower.

Confirm if PBM binding z-score reported for the sequence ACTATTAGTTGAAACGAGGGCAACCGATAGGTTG is 3 or above. No

Check if PBM binding z-score >= 3 (inclusive). Item: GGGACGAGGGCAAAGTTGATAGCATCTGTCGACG No

Record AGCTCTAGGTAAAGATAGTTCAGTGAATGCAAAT ; criterion: PBM binding z-score no lower than 3. Met? No

Check the entry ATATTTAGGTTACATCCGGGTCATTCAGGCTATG : does PBM binding z-score equal or exceed 3? Yes

// inclusive: PBM binding z-score at least 3? input: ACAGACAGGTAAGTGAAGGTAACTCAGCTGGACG No

Evaluate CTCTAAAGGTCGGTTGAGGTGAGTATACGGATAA : PBM binding z-score at minimum 3? Yes

hey, is PBM binding z-score for this one >= 3? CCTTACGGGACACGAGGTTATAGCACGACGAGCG No

Would you say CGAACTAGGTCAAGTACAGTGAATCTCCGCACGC shows PBM binding z-score at minimum 3? No

# check: PBM binding z-score of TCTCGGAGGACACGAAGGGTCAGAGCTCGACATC is greater than or equal to 3 No

Is PBM binding z-score for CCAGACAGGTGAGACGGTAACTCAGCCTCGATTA at or above 3? No

Please check the record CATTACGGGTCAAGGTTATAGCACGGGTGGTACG and state if its PBM binding z-score is at or above 3. Yes

Determine whether this sequence has PBM binding z-score no lower than 3: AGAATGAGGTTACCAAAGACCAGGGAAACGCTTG No

Threshold query (PBM binding z-score >= 3) on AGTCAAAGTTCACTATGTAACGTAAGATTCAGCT Yes

Is it the case that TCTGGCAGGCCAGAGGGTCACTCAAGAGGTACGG has PBM binding z-score reaching or exceeding 3? No

Record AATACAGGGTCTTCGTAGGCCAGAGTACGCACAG ; criterion: PBM binding z-score no lower than 3. Met? No

Could you tell me if the measured PBM binding z-score of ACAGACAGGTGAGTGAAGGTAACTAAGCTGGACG reaches 3 or more? No

Tell me whether PBM binding z-score is at least 3 here: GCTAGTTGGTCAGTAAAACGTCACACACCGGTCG No

For this sequence, is measured PBM binding z-score 3 or higher? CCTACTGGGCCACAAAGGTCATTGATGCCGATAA Yes

Quick check, PBM binding z-score >= 3? CCTAGTCGGTCAGGAGGTCACACACCGGATATGA Yes

Is PBM binding z-score at least 3? Consider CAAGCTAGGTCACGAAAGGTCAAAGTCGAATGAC Yes

Threshold query (PBM binding z-score >= 3) on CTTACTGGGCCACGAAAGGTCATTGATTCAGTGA Yes

Record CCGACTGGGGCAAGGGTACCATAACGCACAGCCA ; criterion: PBM binding z-score no lower than 3. Met? No

Can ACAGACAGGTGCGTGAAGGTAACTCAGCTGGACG be said to have PBM binding z-score at or above 3? No

In plain terms: is recorded PBM binding z-score at least 3 for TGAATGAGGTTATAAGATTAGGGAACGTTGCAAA ? No

Threshold query (PBM binding z-score >= 3) on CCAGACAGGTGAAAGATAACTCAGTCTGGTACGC No
